Format: in vivo, human
Settings: human, cerebrospinal fluid, oral, 25 mg
readout.name: concentration at 6 days (ng/mL)

* Cc1ccc(NC(=O)c2ccc(CN3CCN(C)CC3)cc2)cc1Nc1nccc(-c2cncc(-c3oncc3C)c2)n1 [Risvodetinib] | 4.51

----------
Format: in vivo, human
Settings: human, cerebrospinal fluid, oral, 100 mg
readout.name: concentration at 6 days (ng/mL)

- Cc1ccc(NC(=O)c2ccc(CN3CCN(C)CC3)cc2)cc1Nc1nccc(-c2cncc(-c3oncc3C)c2)n1: 8.42

----------
Test: 7-day multiple ascending dose
Assay type: in vivo, human
Conditions: human, plasma, oral, 200 mg
readout.name: AUC(0-inf) (µg·h/mL)

- Cc1ccc(NC(=O)c2ccc(CN3CCN(C)CC3)cc2)cc1Nc1nccc(-c2cncc(-c3oncc3C)c2)n1: 152

----------
Test: 7-day multiple ascending dose
Type: in vivo, human
Conditions: human, plasma, oral, 12.5 mg
readout.name: AUC(0-inf)

* Cc1ccc(NC(=O)c2ccc(CN3CCN(C)CC3)cc2)cc1Nc1nccc(-c2cncc(-c3oncc3C)c2)n1 | 8830 ng·h/mL

----------
Assay: 7-day multiple ascending dose
Assay type: in vivo, human
Settings: human, plasma, oral, half-life, overall statement in discussion
readout.name: half-life

* Cc1ccc(NC(=O)c2ccc(CN3CCN(C)CC3)cc2)cc1Nc1nccc(-c2cncc(-c3oncc3C)c2)n1 | ~24 h

----------
Assay: 7-day multiple ascending dose
Assay type: in vivo, human
Settings: human, plasma, oral, 25 mg
readout.name: AUC(0-inf) (ng·h/mL)

* Cc1ccc(NC(=O)c2ccc(CN3CCN(C)CC3)cc2)cc1Nc1nccc(-c2cncc(-c3oncc3C)c2)n1 | 19500

----------
Experiment: Single ascending dose
Format: in vivo, human
Conditions: human, plasma, oral
readout.name: half-life

* Cc1ccc(NC(=O)c2ccc(CN3CCN(C)CC3)cc2)cc1Nc1nccc(-c2cncc(-c3oncc3C)c2)n1 | 24 to 39 h
